Where these numbers come from: ChEMBL document CHEMBL1154892

test system: Candida albicans; assay: Antifungal activity against Candida albicans ATCC 10231 after 24 hrs by broth microdilution method; format: functional; settings: ATCC 10231, 24 h
observable: MIC (µg/mL)

[a] O=c1c(O[C@@H]2O[C@H](CO)[C@@H](O)[C@H](O)[C@H]2O)c(-c2ccc(O)c(O)c2)oc2cc(O)cc(O)c12
[b] O=C(CCc1ccc(O)cc1)c1ccc(O)cc1O
Ask: Looking at recorded values for MIC, does a or b come in lower? Provide the label of your selected option as the answer.
Result: b
(b: 1000 µg/mL, a: 4000 µg/mL)

====

test system: Staphylococcus epidermidis; assay: Antibacterial activity against Staphylococcus epidermidis ATCC 12228 after 24 hrs by broth microdilution method; assay type: functional; details: ATCC 12228, 24 h
observable: MIC (µg/mL)

Past entries and their recorded results:
compound="O=C(CCc1ccc(O)cc1)c1ccc(O[C@@H]2O[C@H](CO)[C@@H](O)[C@H](O)[C@H]2O)cc1O [CONFUSOSIDE]" assayed_target="Staphylococcus epidermidis" result_unit=µg/mL test_value=1000
compound=O=c1cc(-c2ccc(O)c(O)c2)oc2cc(O[C@@H]3O[C@H](CO)[C@@H](O)[C@H](O)[C@H]3O)ccc12 assayed_target="Staphylococcus epidermidis" result_unit=µg/mL test_value=500

[I] O=C(CCc1ccc(O)cc1)c1ccc(O)cc1O
[II] O=c1c(O[C@@H]2O[C@H](CO)[C@@H](O)[C@H](O)[C@H]2O)c(-c2ccc(O)c(O)c2)oc2cc(O)cc(O)c12
Ask: Name the one with the greater MIC value, either I or II as given. Provide the label of your selected option as the answer.
Result: II
(II: 1000 µg/mL, I: 250 µg/mL)

====

test system: Staphylococcus epidermidis; assay: Antibacterial activity against Staphylococcus epidermidis ATCC 12228 after 48 hrs by broth microdilution method; assay type: functional; settings: ATCC 12228, 48 h
observable: MBC (µg/mL)
Give the value in µg/mL but do not write µg/mL after it.

Past entries and their recorded results:
compound=O=c1c(O[C@@H]2O[C@H](CO)[C@@H](O)[C@H](O)[C@H]2O)c(-c2ccc(O)c(O)c2)oc2cc(O)cc(O)c12 assayed_target="Staphylococcus epidermidis" observable=MBC result_unit=µg/mL test_value=4000
compound=O=C(CCc1ccc(O)cc1)c1ccc(O)cc1O assayed_target="Staphylococcus epidermidis" observable=MBC result_unit=µg/mL test_value=500
compound=O=c1cc(-c2ccc(O)c(O)c2)oc2cc(O[C@@H]3O[C@H](CO)[C@@H](O)[C@H](O)[C@H]3O)ccc12 assayed_target="Staphylococcus epidermidis" observable=MBC result_unit=µg/mL test_value=4000

Ask: Item O=C(CCc1ccc(O)cc1)c1ccc(O[C@@H]2O[C@H](CO)[C@@H](O)[C@H](O)[C@H]2O)cc1O [CONFUSOSIDE] has what recorded MBC?
Result: 2000

====

test system: Staphylococcus aureus; assay: Antibacterial activity against Staphylococcus aureus ATCC 6538 after 24 hrs by broth microdilution method; format: functional; settings: ATCC 6538, 24 h
observable: MIC (µg/mL)

compound="O=C(CCc1ccc(O)cc1)c1ccc(O[C@@H]2O[C@H](CO)[C@@H](O)[C@H](O)[C@H]2O)cc1O [CONFUSOSIDE]" test_value=4000

[a] O=c1c(O[C@@H]2O[C@H](CO)[C@@H](O)[C@H](O)[C@H]2O)c(-c2ccc(O)c(O)c2)oc2cc(O)cc(O)c12
[b] O=C(CCc1ccc(O)cc1)c1ccc(O)cc1O
[c] O=c1cc(-c2ccc(O)c(O)c2)oc2cc(O[C@@H]3O[C@H](CO)[C@@H](O)[C@H](O)[C@H]3O)ccc12
Ask: Reorder the items by MIC, least to greatest. Put the labels in the requested order and write them down.
Result: b, c, a
(b: 120 µg/mL, c: 2000 µg/mL, a: 4000 µg/mL)
